Data origin, for the record: patent US20090202526A1

molecular target: T1, Human trkC-Fc fusion protein (human, UniProt Q16288 32-429); experiment: BIAcore SPR, human trkC-Fc on chip; KD calculated from koff with 2256 kon 5E5 1/Ms
T1 construct: Immobilised on CM5 chip for BIAcore; also called htrkC; not shown: Fc part not described
For each entry below, report its pKd value.
Scale: pKd equals -log10([C]), with [C] in mol/L.

### Prompt Looking for the measured pKd of Fab clone 129(T8)(H9) (Fab, V domains shown) VH: QVQLVQSGAEVKKPGASVKVSCKASGYTFTSYWRHWVRQAPGQGLEWMGEIYPSNGRTNYNEKFKSRATMTGDKSTSTVYMELSSLRSEDTAVYYCARKYYYGNSRRSWYFDVWGQGTTVTVS VL: DIQMTQSPSSLSASVGDRVTITCRASESVDNYGISFMNWYQQKPGKAPKLLIYAASNRGSGVPSRFSGSGSGTDFTFTISSLQPEDIATYYCQQSKTVPRTFGQGTKLEIKR , can you help?
### Response 8.52

### Prompt One more binder: Fab clone 129(T26) (Fab, V domains shown) VH: QVQLVQSGAEVKKPGASVKVSCKASGYTFTSYWMHWVRQAPGQGLEWMGEIYPSNGRTNYNEKFKSRVTMTLDKSTSTVYMQLSSLRSEDTAVYYCARKYYYGNSRRSWYFDVWGQGTTVTVS VL: DIQMTQSPSSLSASVGDRVTITCRASESVDNYGISFMNWYQQKPGKPPKLLIYAASNQGSGVPSRFSGSGSGTDFTFTISSLQPEDIATYYCQQSKAVPRTFGQGTKLEIKR
### Response 8.64

### Prompt # iterate: Fab clone 129(T8)(H8xE10)(4B) (Fab, V domains shown) VH: QVQLVQSGAEVKKPGASVKVSCKASGYTFTSYRIHWVRQAPGQGLEWMGEIYPSNSRTNYNEKFKSRVTMTGDTSTSTVYMELSSLRSEDTAVYYCARKYYYGNSRRSWYFDVWGQGTTVTVS VL: DIQMTQSPSSLSASVGDRVTITCRASESIDNYGISFLAWYQQKPGKAPKLLIYAASNRGSGVPSRFSGSGSGTDFTFTISSLQPEDIATYYCQQSKTVPRTFGQGTKLEIKR
### Response 8.40
